- Test system: CCK-81 (Colorectal Carcinoma)
- test name: combination Emax (second highest fraction inhibited in the dose matrix, 72 h); higher = more inhibition; extreme values may be limits of the assay
Tick TRUE if combination Emax is 0.9 or greater. Tick FALSE if combination Emax is less than 0.9.

Solved entries (count: 4):
# molecule, label
rows = [
    ("CC(=O)c1c(C)c2cnc(Nc3ccc(N4CCNCC4)cn3)nc2n(C2CCCC2)c1=O [Palbociclib] + Cc1c2c(nn1C)CSCc1cc(n(C)n1)CSc1cc(c3ccccc3c1)OCCCc1c(C(=O)O)n(C)c3c-2c(Cl)ccc13 [AZD5991] (first compound max 10 µM, 7x7, partner max 1 µM)", "TRUE"),
    ("NC1(C(=O)N[C@@H](CCO)c2ccc(Cl)cc2)CCN(c2ncnc3[nH]ccc23)CC1 [Capivasertib] + CCN(CCO)CCCOc1ccc2c(Nc3cc(CC(=O)Nc4cccc(F)c4)[nH]n3)ncnc2c1 [AZD2811] (first compound max 10 µM, 7x7, partner max 1 µM)", "FALSE"),
    ("Cn1cnc2c(F)c(Nc3ccc(Br)cc3Cl)c(C(=O)NOCCO)cc21 [Selumetinib] + CC(C)n1c(=O)n(C)c2cnc3cc(F)c(-c4ccc(OCCCN5CCCCC5)nc4)cc3c21 [AZD1390] (first compound max 10 µM, 7x7, partner max 0.3 µM)", "FALSE"),
    ("COc1cccc(OCCCN)c1-c1cc(Nc2cnc(C#N)cn2)n[nH]1 [Prexasertib] + C=CCn1c(=O)c2cnc(Nc3ccc(N4CCN(C)CC4)cc3)nc2n1-c1cccc(C(C)(C)O)n1 [AZD1775] (first compound max 1 µM, partner max 1 µM)", "TRUE"),
]

With those in mind, consider the next molecule.
Entry CC1(C)CCC(CN2CCN(c3ccc(C(=O)NS(=O)(=O)c4ccc(NCC5CCOCC5)c([N+](=O)[O-])c4)c(Oc4cnc5[nH]ccc5c4)c3)CC2)=C(c2ccc(Cl)cc2)C1 [Venetoclax] + Cn1cnc2c(F)c(Nc3ccc(Br)cc3Cl)c(C(=O)NOCCO)cc21 [Selumetinib] (first compound max 1 µM, 7x7, partner max 3 µM) : is its combination Emax no less than 0.9?
FALSE

---

- System: IGR-37 (Melanoma);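 note: after 72 h of two-drug dosing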
- test name: Bliss excess, mean over the matrix (fraction); higher = more synergy
Item-by-item account of Bliss excess
Returns: the value as a bare number; no unit string appended.

Worked examples follow.
# compound, Bliss excess
records = [
    ("Cc1cc2ncnn2cc1Nc1ncc2c(n1)n(C1CCOCC1)c(=O)n2C [AZD7648] + C[C@@H]1COCCN1C2=NC(=NC(=C2)C3(CC3)[S@](=N)(=O)C)C4=C5C=CNC5=NC=C4 [AZD6738] (first compound max 10 µM, 7x7, partner max 10 µM)", -0.0228),
    ("C[C@@H]1COCCN1c1cc(C2([S@](C)(=N)=O)CC2)nc(-c2ccnc3[nH]ccc23)n1 [AZD6738] + O=C(c1cc(Cc2n[nH]c(=O)c3ccccc23)ccc1F)N1CCN(C(=O)C2CC2)CC1 [Olaparib] (first compound max 10 µM, 7x7, partner max 10 µM)", -0.0475),
    ("CN(CCO)CC[C@H](CSc1ccccc1)Nc1ccc(S(=O)(=O)NC(=O)c2ccc(N3CCC([C@@H](O)c4ccccc4-c4ccc(Cl)cc4)CC3)cc2)cc1S(=O)(=O)C(F)(F)F [AZD4320] + C1CN(CCC1(C(=O)N[C@@H](CCO)C2=CC=C(C=C2)Cl)N)C3=NC=NC4=C3C=CN4 [Capivasertib] (first compound max 1 µM, 7x7, partner max 3 µM)", -0.0389),
]

# ---- query compound ----
# query: Bliss excess of entry N#Cc1cnc(Nc2cc(NC[C@H]3CNCCO3)c(C(F)(F)F)cn2)cn1 [SRA737] + C=CCn1c(=O)c2cnc(Nc3ccc(N4CCN(C)CC4)cc3)nc2n1-c1cccc(C(C)(C)O)n1 [AZD1775] (first compound max 10 µM, partner max 1 µM)
0.0182
